Listing of recorded solubility (g/100 g solution) by entry.
procedure-summary: xn = mol fraction of the nth substance listed, in the solute-free solvent
recorded-conditions: 278.15 K; x2 = 0.9
observation-type: solubility (g/100 g solution)

>>> result_value("Cc1c(Br)c(=O)n(C2CCCC2)c2nc(Cl)ncc12 + CC1=CC(=O)CC(C)(C)C1 + CC(C)O")
0.441
>>> result_value("Cc1ncc(CO)c(CO)c1O.Cl + O + CC#N")
11.5
>>> result_value("Cc1ncc(CO)c(CO)c1O.Cl + O + CCCO")
8.57
>>> result_value("Cc1c(Br)c(=O)n(C2CCCC2)c2nc(Cl)ncc12 + CCOC(C)=O + CCO")
0.571
>>> result_value("Cc1ncc(CO)c(CO)c1O.Cl + O + CC(C)O")
7.31
>>> result_value("Cc1c(Br)c(=O)n(C2CCCC2)c2nc(Cl)ncc12 + C1CCOC1 + CCO")
3.34

* * *

procedure-summary: xn = mol fraction of the nth substance listed, in the solute-free solvent
recorded-conditions: 298.15 K; x2 = 0.1
observation-type: solubility (g/100 g solution)

>>> result_value("CCOc1ccccc1C(N)=O + CO + CC#N")
4.9
>>> result_value("COC(=O)C(N)CS.Cl (configuration not stated) + CCO + ClCCl")
1.4
>>> result_value("CCOc1ccccc1C(N)=O + CCO + CC#N")
4.87
>>> result_value("CCOc1ccccc1C(N)=O + CC#N + CC(C)O")
4.36
>>> result_value("Cc1c(Br)c(=O)n(C2CCCC2)c2nc(Cl)ncc12 + CCOC(C)=O + CCO")
0.368
>>> result_value("Cc1c(Br)c(=O)n(C2CCCC2)c2nc(Cl)ncc12 + CC1=CC(=O)CC(C)(C)C1 + CC(C)O")
0.388
>>> result_value("Cc1c(Br)c(=O)n(C2CCCC2)c2nc(Cl)ncc12 + C1CCOC1 + CCO")
1.28

* * *

procedure-summary: xn = mol fraction of the nth substance listed, in the solute-free solvent
recorded-conditions: 313.15 K; x2 = 0.7
Classify by measured solubility (g/100 g solution): label 1 if it is equal to or exceeds 10, label 0 if it is smaller.

>>> category_label("O=C(NC(C(=O)O)c1ccccc1)OCc1ccccc1 (stereo unspecified) + CCO + O")
"label 1"
>>> category_label("Cc1c(Br)c(=O)n(C2CCCC2)c2nc(Cl)ncc12 + C1CCOC1 + CCO")
"label 0"
>>> category_label("CCOc1ccccc1C(N)=O + CO + CC#N")
"label 1"
>>> category_label("Cc1ncc(CO)c(CO)c1O.Cl + O + CCCO")
"label 1"
>>> category_label("Cl.NC(Cc1ccccc1)C(=O)OCc1ccccc1 (stereo unspecified) + CO + CC(C)=O")
"label 1"
>>> category_label("CCOc1ccccc1C(N)=O + CC#N + CC(C)O")
"label 1"

* * *

procedure-summary: xn = mol fraction of the nth substance listed, in the solute-free solvent
recorded-conditions: 313.15 K; x2 = 0.7
observation-type: solubility (g/100 g solution)

>>> result_value("Cc1c(Br)c(=O)n(C2CCCC2)c2nc(Cl)ncc12 + CC1=CC(=O)CC(C)(C)C1 + CC(C)O")
3.12
>>> result_value("Cc1ncc(CO)c(CO)c1O.Cl + O + CC#N")
17.9
>>> result_value("Cc1c(Br)c(=O)n(C2CCCC2)c2nc(Cl)ncc12 + CCOC(C)=O + CCO")
1.3
>>> result_value("CCOc1ccccc1C(N)=O + CCO + CC#N")
15
>>> result_value("Cl.N=C(N)NC(=N)N1CCOCC1 + O + CC(C)O")
34.9
>>> result_value("Cc1ncc(CO)c(CO)c1O.Cl + O + CC(C)O")
14.3

* * *

solubility (g/100 g solution) values, listed per item
procedure-summary: xn = mol fraction of the nth substance listed, in the solute-free solvent
recorded-conditions: 283.15 K; x2 = 0.7
observation-type: solubility (g/100 g solution)

>>> result_value("Cc1c(Br)c(=O)n(C2CCCC2)c2nc(Cl)ncc12 + C1CCOC1 + CCO")
3.42
>>> result_value("Cl.N=C(N)NC(=N)N1CCOCC1 + O + CC(C)O")
19.8
>>> result_value("Cc1c(Br)c(=O)n(C2CCCC2)c2nc(Cl)ncc12 + CCOC(C)=O + CCO")
0.56
>>> result_value("Cc1ncc(CO)c(CO)c1O.Cl + O + CC#N")
9.25

* * *

procedure-summary: xn = mol fraction of the nth substance listed, in the solute-free solvent
recorded-conditions: 293.15 K; x2 = 0.2
Cut-off 1 on solubility (g/100 g solution), inclusive. At or above means true (1); below means false (0).

>>> category_label("O=C(NC(C(=O)O)c1ccccc1)OCc1ccccc1 (stereo not given) + CCO + O")
"false (0)"
>>> category_label("CCOC(=O)OC1=C(c2cc(C)ccc2C)C(=O)NC12CCC(OC)CC2 (stereo not given) + CCO + O")
"false (0)"
>>> category_label("CCOc1ccccc1C(N)=O + CCO + CC#N")
"true (1)"
>>> category_label("CCOc1ccccc1C(N)=O + CO + CC#N")
"true (1)"
>>> category_label("Cl.NC(Cc1ccccc1)C(=O)OCc1ccccc1 (stereo not given) + CO + CC(C)=O")
"false (0)"
>>> category_label("Cc1c(Br)c(=O)n(C2CCCC2)c2nc(Cl)ncc12 + CC1=CC(=O)CC(C)(C)C1 + CC(C)O")
"false (0)"
>>> category_label("Cl.N=C(N)NC(=N)N1CCOCC1 + O + CC(C)O")
"true (1)"
>>> category_label("NC(=O)NC1NC(=O)NC1=O (stereo not given) + O + CO")
"false (0)"
>>> category_label("Cc1c(Br)c(=O)n(C2CCCC2)c2nc(Cl)ncc12 + CCOC(C)=O + CCO")
"false (0)"
>>> category_label("Cc1c(Br)c(=O)n(C2CCCC2)c2nc(Cl)ncc12 + C1CCOC1 + CCO")
"true (1)"

* * *

procedure-summary: xn = mol fraction of the nth substance listed, in the solute-free solvent
recorded-conditions: 278.15 K; x2 = 0.5
Please use yes (1) whenever solubility (g/100 g solution) is not below 2, and no (0) whenever it is.

>>> category_label("Cc1c(Br)c(=O)n(C2CCCC2)c2nc(Cl)ncc12 + CC1=CC(=O)CC(C)(C)C1 + CC(C)O")
"no (0)"
>>> category_label("Cc1c(Br)c(=O)n(C2CCCC2)c2nc(Cl)ncc12 + CCOC(C)=O + CCO")
"no (0)"
>>> category_label("Cc1ncc(CO)c(CO)c1O.Cl + O + CCCO")
"yes (1)"
>>> category_label("Cc1ncc(CO)c(CO)c1O.Cl + O + CC#N")
"yes (1)"
>>> category_label("Cc1c(Br)c(=O)n(C2CCCC2)c2nc(Cl)ncc12 + C1CCOC1 + CCO")
"yes (1)"
>>> category_label("Cc1ncc(CO)c(CO)c1O.Cl + O + CC(C)O")
"no (0)"

* * *

# solubility (g/100 g solution) listing for each entry below
procedure-summary: xn = mol fraction of the nth substance listed, in the solute-free solvent
recorded-conditions: 318.15 K; x2 = 0.8
observation-type: solubility (g/100 g solution)

>>> result_value("CCOc1ccccc1C(N)=O + CC#N + CC(C)O")
14.4
>>> result_value("CCOC(=O)OC1=C(c2cc(C)ccc2C)C(=O)NC12CCC(OC)CC2 (stereo unspecified) + CC(C)O + O")
16.5
>>> result_value("CCOc1ccccc1C(N)=O + CO + CC#N")
24
>>> result_value("N#CCNC(=O)c1cnccc1C(F)(F)F + CCOC(C)=O + CCO")
10.9
>>> result_value("Cc1c(Br)c(=O)n(C2CCCC2)c2nc(Cl)ncc12 + C1CCOC1 + CCO")
11.2
>>> result_value("CCOC(=O)OC1=C(c2cc(C)ccc2C)C(=O)NC12CCC(OC)CC2 (stereo unspecified) + CO + O")
19.2
>>> result_value("CCOC(=O)OC1=C(c2cc(C)ccc2C)C(=O)NC12CCC(OC)CC2 (stereo unspecified) + CCO + O")
18.7
>>> result_value("CCOc1ccccc1C(N)=O + CCO + CC#N")
16.5
>>> result_value("Cc1c(Br)c(=O)n(C2CCCC2)c2nc(Cl)ncc12 + CCOC(C)=O + CCO")
1.57
>>> result_value("Cc1c(Br)c(=O)n(C2CCCC2)c2nc(Cl)ncc12 + CC1=CC(=O)CC(C)(C)C1 + CC(C)O")
4.28
>>> result_value("CCOC(=O)OC1=C(c2cc(C)ccc2C)C(=O)NC12CCC(OC)CC2 (stereo unspecified) + CC(C)=O + O")
31.4

Data credit: the CheMixHub drug solubility set
